Data provenance: PubChem BioAssay (NCI)

system: DMS 114 small cell lung; experiment: NCI tumour cell line growth inhibition, 48 h
quantity-measured: TGI

Query: TGI; subject: CC1(C)OC2OC(/C=C/[N+](=O)[O-])C3OC(C)(C)OC3C2O1 (stereo not drawn)
34.5 µM

Proceed to BrC(/C=N/Nc1nnc(-c2ccccc2)c(-c2ccccc2)n1)C(Br)c1ccccc1 (stereo not drawn)
> 100 µM

Proceed to N#CN1CCC2CC(=O)CCC2C1 (stereo not drawn)
> 100 µM

====

tested on: CCRF-CEM leukemia; experiment: NCI tumour cell line growth inhibition, 48 h
Can you tell me TGI for the items I'm about to list?
Could you give me the number in µM? Just the number is fine.

Query: TGI; subject: COc1cc2c(cc1O)CCN[C@@]21CS[C@H]2c3c(OC(C)=O)c(C)c4c(c3C(COC1=O)N1C2C2NC(Cc3cc(C)c(OC)c(O)c32)[C@@H]1C#N)OCO4 (stereo not given in full)
0.0525

Proceed to CC(=O)Nc1ccc2c3c(cc(O)c2c1)N(C(=O)CCCCCCC(=O)Nc1ccc2c4c(cc(O)c2c1)N(C(=O)OC(C)(C)C)CC4CCl)CC3CCl (stereo not given)
0.0259

Proceed to "Nc1ccc(Oc2ccc(C3(c4ccc(Oc5ccc(N)c(O)c5)cc4)C4CC5CC(C4)CC3C5)cc2)cc1O"
6.47

====

Let's go through some recorded GI50 values for U251 CNS together.

Query: GI50; subject: "COc1cccc(-c2cc(-c3ccc(Nc4nc(Nc5ccc(Cl)cc5)nc(Nc5ccc(Cl)cc5)n4)cc3)nc(N)c2C#N)c1"
3760 nM

Proceed to "N=C(N)c1ccc(-c2ccc(-c3cccs3)s2)cc1F"
1330 nM

Proceed to "Fc1cnccc1-c1nc2ccc3[nH]ncc3c2c2c1CCCC2"
1960 nM

Proceed to "C=C1C(=O)O[C@H]2[C@H]1CC/C(COC(=O)NCc1ccc(Cn3c(=O)sn(CCCI)c3=O)cc1)=C\CC[C@@]1(C)O[C@@H]21"
1750 nM

Proceed to "CN(C)CCCn1c2c(c3ccc(N4CCNCC4)cc3c1=O)C(=O)c1ccccc1-2"
639 nM

Proceed to "O[C@@H]1CCCCN1Cc1cc2cc3c(cc2c2cc(OCc4ccccc4)ccc12)OCO3"
1520 nM

Proceed to "Cc1ccc(CNc2ccc(Cl)cc2NCc2ccc(C)c(O)c2)cc1O"
7150 nM

Proceed to "CC(=O)Nc1ccc(/C=C/C(=O)c2sc(-n3nc(-c4ccccc4)cc3-c3ccccc3)nc2C)cc1"
> 100000 nM

Proceed to CCCN1CCCC(c2ccc(Nc3nc(Nc4cc(F)ccc4C(N)=O)c4cc[nH]c4n3)c(OC)c2)C1 (configuration not stated)
2570 nM

Proceed to "N#CCC1CCN(c2nc(Nc3ccc(N4CCC(O)CC4)cc3)c3c(=O)[nH]ncc3n2)CC1"
1030 nM

Proceed to CC1SC(c2ccc(OCc3ccccc3)cc2)N(NC(=O)C(O)(c2ccccc2)c2ccccc2)C1=O (configuration not stated)
4060 nM

Proceed to "O=C(c1ccco1)c1c(C(F)(F)F)n([O-])c2cc(Cl)c(Cl)cc2[n+]1=O"
705 nM

====

test system: DU-145 prostate; experiment: NCI tumour cell line growth inhibition, 48 h
Can you tell me TGI for the items I'm about to list?
Could you give me the number in µM? Just the number is fine.

Query: TGI; subject: "O=[N+]([O-])c1cccc(-c2ccc([C@H]3CC(c4ccc(Cl)cc4)=NN3)o2)c1"
50.1

Proceed to "COc1ccc2c(c1)c(-c1nc(-c3cn(C)c4ncccc34)cs1)cn2CCCCN1CCCCC1"
3.12

Proceed to "CN(C)CCCCN1c2ccccc2Sc2ccc(N=[N+]=[N-])cc21"
18.2

Proceed to "Cc1c(S(=O)(=O)/N=C(\NO)Nc2ccc(Cl)cc2)sc2ccc(Cl)cc12"
53.7

Proceed to "N#CSc1c[nH]c2cccc(/C=C/C(=O)/C=C(O)/C=C/c3cccc4[nH]cc(SC#N)c34)c12"
0.986

Proceed to CC(=O)Nc1ccc(S(=O)(=O)N2C(=O)CCC2C(=O)Nc2ccccc2)cc1 (stereo not given)
19.2
